I'd appreciate it if you could supply folding stability dG values for the items below.
B1: HEEH_KT_rd6_3546 (parent)
chain: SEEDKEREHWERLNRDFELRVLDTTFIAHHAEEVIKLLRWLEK

- Variants of: B1
- test details: folding stability dG (cDNA display proteolysis); higher = more stable
- experimental parameters: PBS, room temperature
Respond with a number, then the unit of measure.

-- ask Find the recorded folding stability dG belonging to R20M and report it.
-- reply 1.63 kcal/mol

-- ask Find the recorded folding stability dG belonging to E33A and report it.
-- reply 1.74 kcal/mol

-- ask Find the recorded folding stability dG belonging to H30I and report it.
-- reply 2.09 kcal/mol

-- ask Find the recorded folding stability dG belonging to L19G and report it.
-- reply 0.617 kcal/mol

-- ask Find the recorded folding stability dG belonging to S1D and report it.
-- reply 1.36 kcal/mol

-- ask Find the recorded folding stability dG belonging to A28R and report it.
-- reply 1.48 kcal/mol

-- ask Find the recorded folding stability dG belonging to L19F and report it.
-- reply 1.42 kcal/mol

-- ask Find the recorded folding stability dG belonging to W10V and report it.
-- reply 1.03 kcal/mol

-- ask Find the recorded folding stability dG belonging to D4T and report it.
-- reply 1.42 kcal/mol

-- ask Find the recorded folding stability dG belonging to L41W and report it.
-- reply 1.22 kcal/mol

-- ask Find the recorded folding stability dG belonging to F17K and report it.
-- reply 0.798 kcal/mol

-- ask Find the recorded folding stability dG belonging to E6S and report it.
-- reply 1.47 kcal/mol

-- ask Find the recorded folding stability dG belonging to L22P and report it.
-- reply 0.989 kcal/mol

-- ask Find the recorded folding stability dG belonging to H30P and report it.
-- reply 0.902 kcal/mol

-- ask Find the recorded folding stability dG belonging to E6L and report it.
-- reply 1.55 kcal/mol

-- ask Find the recorded folding stability dG belonging to H30S and report it.
-- reply 1.23 kcal/mol

-- ask Find the recorded folding stability dG belonging to L38W and report it.
-- reply 1.61 kcal/mol

-- ask Find the recorded folding stability dG belonging to L13Y and report it.
-- reply 1.77 kcal/mol

-- ask Find the recorded folding stability dG belonging to R20A and report it.
-- reply 1.04 kcal/mol

-- ask Find the recorded folding stability dG belonging to V21G and report it.
-- reply 1.49 kcal/mol

-- ask Find the recorded folding stability dG belonging to E2P and report it.
-- reply 1.34 kcal/mol

-- ask Find the recorded folding stability dG belonging to R12L and report it.
-- reply 1.55 kcal/mol
